Reference for the values: patent US20140005163A1

protocol.notes: Cellular CaCo2 permeability assay from apical to basal (A-B)
Format: in vitro ADME
condition.label: human, Caco-2, read-out: Pe A-B (permeability)
property.name: Papp A→B (×10⁻⁶ cm/s)

Check out these entries, answers already filled in.
COc1ccc(-c2ccc3ncc4c(c3c2)n(-c2cn(C)nc2C)c(=O)n4C)cn1: 38.4
CCn1cc(-n2c(=O)n(C)c3cnc4ccc(-c5ccc(OC)nc5)cc4c32)c(C)n1: 21.5
CCOc1cc(-c2ccc3ncc4c(c3c2)n(-c2cn(C)nc2C)c(=O)n4C)cnc1COC: 15.8
CCNc1cc(-c2ccc3ncc4c(c3c2)n(-c2cn(C)nc2Cl)c(=O)n4C)cnc1C: 29.9

P: Cc1nn(C(C)C)cc1-n1c(=O)n(C)c2cnc3ccc(-c4ccc(N(C)C)nc4)cc3c21
Q: Cc1nn(C)cc1-n1c(=O)n(C)c2cnc3ccc(-c4ccc(N(C)C)nc4)cc3c21
R: Cc1nn(C)cc1-n1c(=O)n(C)c2cnc3ccc(-c4ccc(N5CCN(C)CC5)nc4)cc3c21
Order the items by recorded Papp A→B; the first position goes to the largest value. # list labels per requested ordering P, Q, R
(P: 35.1 ×10⁻⁶ cm/s, Q: 16.1 ×10⁻⁶ cm/s, R: 6 ×10⁻⁶ cm/s)

---

measurement.target: PI3K delta (Homo sapiens, UniProt O00329)
Construct: for the full-length p110-d subunit are generated and fused by overlapping PCR; p85(iSH2) fusion partner (see partner chain) (N); His tag (C); Tn5 (Trichoplusia ni) or TiniPro insect cells
Sequence (O00329 with tags, fused parts or gaps limits assumed): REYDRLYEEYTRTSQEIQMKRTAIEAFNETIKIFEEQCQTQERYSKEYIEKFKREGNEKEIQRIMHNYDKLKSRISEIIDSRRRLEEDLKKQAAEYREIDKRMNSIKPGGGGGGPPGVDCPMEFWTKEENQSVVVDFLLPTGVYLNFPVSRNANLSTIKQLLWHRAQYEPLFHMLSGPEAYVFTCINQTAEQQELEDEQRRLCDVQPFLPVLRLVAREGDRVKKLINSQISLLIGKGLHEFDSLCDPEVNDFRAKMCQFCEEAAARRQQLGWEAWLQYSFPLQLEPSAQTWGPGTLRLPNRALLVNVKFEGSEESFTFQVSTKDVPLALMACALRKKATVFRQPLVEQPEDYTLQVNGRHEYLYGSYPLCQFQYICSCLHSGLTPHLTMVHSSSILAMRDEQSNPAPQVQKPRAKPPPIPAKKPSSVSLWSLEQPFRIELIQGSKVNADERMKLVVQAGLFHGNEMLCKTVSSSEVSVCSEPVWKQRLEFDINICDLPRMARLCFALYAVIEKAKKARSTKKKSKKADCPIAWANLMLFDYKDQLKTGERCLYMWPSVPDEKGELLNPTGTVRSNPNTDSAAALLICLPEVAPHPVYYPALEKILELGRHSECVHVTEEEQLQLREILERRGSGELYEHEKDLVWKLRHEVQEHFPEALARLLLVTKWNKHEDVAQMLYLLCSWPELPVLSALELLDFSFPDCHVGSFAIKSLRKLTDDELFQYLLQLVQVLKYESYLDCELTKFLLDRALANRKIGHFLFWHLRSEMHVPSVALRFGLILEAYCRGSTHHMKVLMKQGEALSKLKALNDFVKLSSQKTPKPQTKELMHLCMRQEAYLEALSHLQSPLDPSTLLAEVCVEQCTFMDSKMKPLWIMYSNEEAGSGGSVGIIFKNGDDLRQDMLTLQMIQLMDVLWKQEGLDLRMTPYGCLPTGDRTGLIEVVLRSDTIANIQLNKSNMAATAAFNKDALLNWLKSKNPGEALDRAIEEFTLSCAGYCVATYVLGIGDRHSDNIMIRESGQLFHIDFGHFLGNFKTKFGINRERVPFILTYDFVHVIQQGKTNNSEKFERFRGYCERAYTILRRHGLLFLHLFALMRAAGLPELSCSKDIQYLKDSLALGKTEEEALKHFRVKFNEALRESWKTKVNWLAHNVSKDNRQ
protocol.notes: PI3K delta kinase assay (Kinase-Glo luminescence)
Method: In a more preferred assay, the kinase reaction is performed in a final volume of 10 μL per well of a low volume non binding CORNING, 384 well black plate (Cat. No. #3676). The final concentrations of ATP and phosphatidyl inositol (PI) in the assay are 1 μM and 10 μg/mL respectively. […] IC50 is determined by a four parameter curve fitting routine that comes along with “excel fit”. […] Alternatively, IC50 values are calculated using idbsXLfit model 204, which is a 4 parameter logistic model.
pIC50: −log10 of the molar value.
property.name: pIC50

Past entries and their recorded results:
CCOc1cc(-c2ccc3ncc4c(c3c2)n(-c2cn(C)nc2C)c(=O)n4C)cnc1COC: 7.46
Cc1nn(C)cc1-n1c(=O)n(C)c2cnc3ccc(-c4ccc(-n5cccn5)nc4)cc3c21: 6.50
[2H]C([2H])([2H])Nc1ncc(-c2ccc3ncc4c(c3c2)n(-c2c(C)nn(C)c2C)c(=O)n4C)cc1C(F)(F)F: 8.00
Cc1nn(C)cc1-n1c(=O)n(C)c2cnc3ccc(-c4cncc(N(C)C5CCC5)c4)cc3c21: 7.64
CCn1cc(-n2c(=O)n(C)c3cnc4ccc(-c5cncc(NC)c5)cc4c32)c(C)n1: 7.70

a: CCn1cc(-n2c(=O)n(C)c3cnc4ccc(-c5cncc(OC(C)C)c5)cc4c32)c(C)n1
b: CNC(=O)c1ccc(-c2ccc3ncc4c(c3c2)n(-c2c(C)nn(C)c2C)c(=O)n4C)cn1
c: Cc1nn(C)cc1-n1c(=O)n(C)c2cnc3ccc(-c4cncc(OCCF)c4)cc3c21
Arrange the 3 entries by pIC50 so the values rise. Please reply with the labels ordered as requested. Many thanks. b, c, a
(b: 6.09, c: 7.62, a: 7.92)

a: COCc1cc(-c2ccc3ncc4c(c3c2)n(-c2cn(C(C)C)nc2C)c(=O)n4C)cnc1N
b: Cc1nn(C)cc1-n1c(=O)n(C)c2cnc3ccc(-c4cnc(Cl)c(N)c4)cc3c21
c: Cc1nn(C)cc1-n1c(=O)n(C)c2cnc3ccc(-c4cc(O)cc(F)c4)cc3c21
d: COC(=O)c1ccc(-c2ccc3ncc4c(c3c2)n(-c2cn(C)nc2C)c(=O)n4C)cn1
e: Cc1nn(C)cc1-n1c(=O)n(C)c2cnc3ccc(-c4ccc(OCC5CC5)nc4)cc3c21
Falling order of pIC50, please. Return the labels ranked in the requested order, please. a, c, b, d, e
(a: 8.30, c: 7.80, b: 7.55, d: 7.03, e: 6.36)
